- Target entity: AMPK
- Test: AMPK activation, enzyme-linked immunosorbent assay
- Stated conditions: EC50 for AMPK activation, ELISA
pEC50: −log10 of the molar value.
Assay readout: pEC50

{"Compound": "COc1ccc(O[C@H]2CC[C@@H](NC(=O)c3ccc(C(=O)N4CCC(Oc5ccc(C(F)(F)F)cc5)CC4)cn3)CC2)cc1", "Observed measurement": "> 6.30"}
{"Compound": "COc1ccc(CN2CCC(NC(=O)c3ccc(C(=O)N4CCC(C(=O)c5ccc(F)cc5F)CC4)cn3)CC2)cc1", "Observed measurement": "> 6.30"}
{"Compound": "CC(=O)Nc1cccc(OC2CCN(C(=O)c3ccc(C(=O)NC4CCN(Cc5ccc(F)cc5)CC4)cn3)CC2)c1", "Observed measurement": "5.30 to 6.00"}
{"Compound": "COc1ccc(C(=O)C2CCN(C(=O)c3ccc(C(=O)NC4CCN(Cc5ccc(C#N)cc5)CC4(F)F)cn3)CC2)cc1 (centres unmarked)", "Observed measurement": "> 6.30"}
{"Compound": "O=C(NC1CCN(Cc2cc(F)cc(F)c2)CC1)c1ccc(C(=O)N2CCC(C(=O)c3ccc(F)cc3)CC2)cn1", "Observed measurement": "> 6.30"}
{"Compound": "O=C(NC1CCN(Cc2ccc(F)cc2)CC1)c1ccc(C(=O)N2CCC(Oc3ccc(F)cc3)CC2)cn1", "Observed measurement": "> 6.30"}
{"Compound": "COc1ccc(C(=O)C2CCN(C(=O)c3ccc(C(=O)N[C@H]4CCN(Cc5ccc(C#N)cc5)C[C@@H]4F)cn3)CC2)cc1", "Observed measurement": "> 6.30"}
{"Compound": "N#Cc1ccc(O[C@H]2CC[C@@H](NC(=O)c3ccc(C(=O)N4CCC(C(=O)c5ccc(N6CCCC6)cc5)CC4)nc3)CC2)cc1", "Observed measurement": "> 6.30"}
{"Compound": "COc1ccc(C(=O)C2CCN(C(=O)c3ccc(C(=O)NC4CCN(Cc5cccc(OC)c5)CC4)cn3)CC2)cc1", "Observed measurement": "> 6.30"}
{"Compound": "O=C(NC1CCN(Cc2cccc(OC(F)(F)F)c2)CC1)c1ccc(C(=O)N2CCC(C(=O)c3ccc(N4CCCC4)cc3)CC2)nc1", "Observed measurement": "> 6.30"}
{"Compound": "CC(C)(c1ccc(C#N)cc1)N1CCC(NC(=O)c2ccc(C(=O)N3CCN(Cc4ccc(F)cc4)CC3)cn2)CC1", "Observed measurement": "5.30 to 6.00"}
{"Compound": "COc1ccc(OC2CCN(C(=O)c3ccc(C(=O)NC4CCN(Cc5ccc(C#N)cc5)CC4)cn3)CC2)c(NC(=O)CCOCCOCCOCCOCCNC(=O)CCCC[C@@H]2SC[C@@H]3NC(=O)N[C@@H]32)c1", "Observed measurement": "< 5.00"}
{"Compound": "O=C(Nc1ccc(Oc2ccc(F)cc2)nc1)c1ccc(C(=O)N2CCN(Cc3ccc(F)cc3)CC2)nc1", "Observed measurement": "> 6.30"}
{"Compound": "O=C(Nc1ccc(Br)cc1)c1ccc(C(=O)N2CCN(Cc3ccc(F)cc3)CC2)cn1", "Observed measurement": "6.00 to 6.30"}

Data origin: patent US9663496B2
